molecular target: Fuc(a1-3)[Gal(b1-4)]GlcNAc(b1-2)Man(a1-3)[Fuc(a1-3)[Gal(b1-4)]GlcNAc(b1-2)Man(a1-6)]Man(b1-4)GlcNAc(b1-4)[Fuc(a1-6)]GlcNAc; test: glycan array binding signal (z-score within array); higher = stronger binding; conditions: glycan notation: IUPAC condensed, linker removed
The sample as a whole holds a higher share of the strongest signals than the screen did.
outcome.measure: glycan array binding signal (z-score)

Task: Fill in the blank: the reported glycan array binding signal (z-score) of his-Lectin-24A (Drosophila melanogaster) (protein) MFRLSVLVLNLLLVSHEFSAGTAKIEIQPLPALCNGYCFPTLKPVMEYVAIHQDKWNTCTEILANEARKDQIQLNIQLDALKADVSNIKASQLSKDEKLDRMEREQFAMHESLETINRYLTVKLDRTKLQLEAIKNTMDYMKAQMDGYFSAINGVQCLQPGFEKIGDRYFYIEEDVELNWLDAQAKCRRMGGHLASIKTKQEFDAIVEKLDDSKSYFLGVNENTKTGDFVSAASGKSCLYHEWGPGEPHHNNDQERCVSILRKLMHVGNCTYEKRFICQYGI is ____.
Output: 0.275
